Would you kindly list ECL signal for each of these binders?
target.or.test.system: T1, rHuman P-Cadherin/Fc Chimera, CF (human, UniProt P22223 108-654)
T1 construct: Bought from R&D Systems; not shown: Fc of the bought chimera
measurement.protocol: ECL Multispot (MSD) assay; antigen spotted on plate, Fab in solution;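 note: fab bound 1 h at 20 °C, detected by TAG-labelled antibody electrochemiluminescence, signal relative to each well's blank, ratio of 4 or more marks a hit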
One number for each entry.

Some binders with known ECL signal results, for comparison:
{"binder": "Fab VH1-46_IGHD6-6*01_IGHJ1*01 S102A/S103P/S104F/H111F (APFF) & L6_IGKJ1*01 S28G (Fab, V domains shown, Fab made in E. coli; the variable domains were cloned into Plasmid A (CH1, His and Flag tags) and Plasmid C (kappa CL); also called APFF / S28G) VH: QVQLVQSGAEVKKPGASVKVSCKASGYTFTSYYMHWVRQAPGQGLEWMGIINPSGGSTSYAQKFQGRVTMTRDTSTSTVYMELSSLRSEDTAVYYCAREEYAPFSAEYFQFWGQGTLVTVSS VL: EIVLTQSPATLSLSPGERATLSCRASQGVSSYLAWYQQKPGQAPRLLIYDASNRATGIPARFSGSGSGTDFTLTISSLEPEDFAVYYCQQRSNWPPWTFGQGTKVEIKR", "ECL signal": 491}
{"binder": "Fab VH1-46_IGHD6-6*01_IGHJ1*01 S102A/S103P/S104F/H111F (APFF) & L6_IGKJ1*01 S28F (Fab, V domains shown, Fab made in E. coli; the variable domains were cloned into Plasmid A (CH1, His and Flag tags) and Plasmid C (kappa CL); also called APFF / S28F) VH: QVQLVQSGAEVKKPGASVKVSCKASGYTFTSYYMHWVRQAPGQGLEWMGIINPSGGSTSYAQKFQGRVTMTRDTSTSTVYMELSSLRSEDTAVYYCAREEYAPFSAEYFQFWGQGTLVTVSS VL: EIVLTQSPATLSLSPGERATLSCRASQFVSSYLAWYQQKPGQAPRLLIYDASNRATGIPARFSGSGSGTDFTLTISSLEPEDFAVYYCQQRSNWPPWTFGQGTKVEIKR", "ECL signal": 336}

Let's switch to this binder now.
Name the reported ECL signal value associated with the binder Fab VH1-46_IGHD6-6*01_IGHJ1*01 S102A/S103P/S104F/H111F (APFF) & L6_IGKJ1*01 S28K (Fab, V domains shown, Fab made in E. coli; the variable domains were cloned into Plasmid A (CH1, His and Flag tags) and Plasmid C (kappa CL); also called APFF / S28K) VH: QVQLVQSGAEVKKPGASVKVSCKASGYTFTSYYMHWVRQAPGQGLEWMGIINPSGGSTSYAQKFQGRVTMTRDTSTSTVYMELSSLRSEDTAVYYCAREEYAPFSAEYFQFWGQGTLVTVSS VL: EIVLTQSPATLSLSPGERATLSCRASQKVSSYLAWYQQKPGQAPRLLIYDASNRATGIPARFSGSGSGTDFTLTISSLEPEDFAVYYCQQRSNWPPWTFGQGTKVEIKR
443

Source listed as patent US20120316071A1.
